study_system: URAT-1 (uric acid transporter) (Homo sapiens (Human))
Sequence (Q96S37 whole entry): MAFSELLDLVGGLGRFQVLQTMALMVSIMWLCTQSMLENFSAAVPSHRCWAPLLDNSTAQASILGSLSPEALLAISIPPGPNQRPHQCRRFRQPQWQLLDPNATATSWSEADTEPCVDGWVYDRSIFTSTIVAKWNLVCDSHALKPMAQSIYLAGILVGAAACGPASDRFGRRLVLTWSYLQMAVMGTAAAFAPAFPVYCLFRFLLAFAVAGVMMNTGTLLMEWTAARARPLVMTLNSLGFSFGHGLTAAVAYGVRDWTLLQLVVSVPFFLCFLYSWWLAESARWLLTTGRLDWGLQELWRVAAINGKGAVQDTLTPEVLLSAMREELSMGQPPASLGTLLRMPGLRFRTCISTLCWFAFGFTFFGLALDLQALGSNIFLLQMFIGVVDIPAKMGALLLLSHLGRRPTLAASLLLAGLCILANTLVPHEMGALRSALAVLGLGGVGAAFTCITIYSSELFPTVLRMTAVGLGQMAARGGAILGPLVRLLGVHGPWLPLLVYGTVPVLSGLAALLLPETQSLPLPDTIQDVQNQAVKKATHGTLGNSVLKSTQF
experiment: Inhibition of 14C uric acid transport by HEK293 cell line stably transfected with the URAT-1 gene
Type: cell-based
experimental_conditions: URAT-1 (HEK293) cells; 14C-labelled uric acid 50 um, 10 min at 37° C.; read-out: IC50 (inhibition against URAT-1)
measure_name: IC50

Notebook: COC(=O)C(C)(C)Sc1nncn1-c1cc(Br)c(-c2ccccc2)s1 , IC50 read as > 20 µM

What the record says about O=C(O)CSc1nncn1-c1sc(-c2ccc(Cl)c(Cl)c2)c2c1CCC2 : IC50 is > 20 µM

Per the records, this compound ( CC(Sc1nnc(Br)n1-c1sc(-c2ccccc2)c2c1CCCC2)C(=O)O (stereo not drawn) ) has IC50 equal to 2 to 20 µM

Lab book: IC50 of CC(C)(Sc1nnc(Br)n1-c1sc(C2CC2)c2c1CCCC2)C(=O)O noted as < 2 µM

What the record says about CC1(C)CCc2c(-n3c(Br)nnc3SC(C)(C)C(=O)O)sc(C3CC3)c2C1 : IC50 is < 2 µM

Recorded result, O=C(O)CSc1nnc(Br)n1-c1sc(-c2ccc(F)cc2)c2c1CCC2 , IC50: > 20 µM

Input CN(C)c1ccc(-c2sc(-n3cnnc3SCC(=O)O)c3c2CCC3)cc1 . Output IC50: > 20 µM

Lookup result for CC(Sc1nncn1-c1sc(C2CC2)c2c1CCCC2)C(=O)O (stereo not drawn) ; measured IC50: > 20 µM

For C[C@@H](Sc1nnc(Br)n1-c1sc(C2CC2)c2c1CCCC2)C(=O)O the compound record lists IC50 as < 2 µM
